Every entry's value here was drawn from ChEMBL document CHEMBL3745619.

assayed_system: Phosphodiesterase 4 (Homo sapiens, UniProt P27815+Q08499+Q07343+Q08493)
experiment_description: Inhibition of PDE4 in human SHSY-5Y cells assessed as suppression of cAMP hydrolysis by HTRF assay in presence of dye d2 labelled cAMP
Type: cell-based
setup_conditions: sh-sy5y
property_label: IC50 (nM)

Example entries and their recorded answers appear below.
[[record]]
smiles_repr = "CSc1nn2c(Nc3cc(Cl)cc(Cl)c3)c3c(nc2c1C)CCNC3=O"
recorded_result = 480

[[record]]
smiles_repr = "CC(C)c1c(S(C)(=O)=O)nn2c(Nc3cc(Cl)cc(Cl)c3)c(C(N)=O)cnc12"
recorded_result = 507

[[record]]
smiles_repr = "CCc1cnn2c(Nc3cccc(OC)c3)c(C(N)=O)cnc12"
recorded_result = 5400

[[record]]
smiles_repr = "COc1cccc(Nc2c(C(N)=O)cnc3c(C)c(S(=O)(=O)c4cccc(C(=O)N(C)C)c4)nn23)c1"
recorded_result = 629

[[record]]
smiles_repr = "Cc1c(S(C)(=O)=O)nn2c(Nc3cc(Cl)cc(Cl)c3)c3c(nc12)CCNC3=O"
recorded_result = 5


(1) Cc1c(S(=O)(=O)c2ccccc2)nn2c(Nc3cc(Cl)cc(Cl)c3)c(C(N)=O)cnc12
(2) COc1cccc(Nc2c(C(N)=O)cnc3c(C(C)C)c(S(C)(=O)=O)nn23)c1
Lab note: check whether 1 or 2 shows the higher recorded IC50. Please respond with the label that marks your chosen entry.
1

(P) Cc1c(S(=O)(=O)c2cccc(C(=O)N(C)C)c2)nn2c(Nc3cc(Cl)cc(Cl)c3)c(C(N)=O)cnc12
(Q) COc1cccc(Nc2c(C(N)=O)cnc3c(C)c(S(=O)(=O)c4ccccc4)nn23)c1
(R) COc1cccc(Nc2c(C(N)=O)cnc3c(C)c(S(C)(=O)=O)nn23)c1
(S) COc1cccc(Nc2c3c(nc4c(C)c(S(C)(=O)=O)nn24)CCNC3=O)c1
Order field: IC50 | Direction: descending (largest first) Please list the labels according to the requested order.
R, Q, P, S
(R: 1820 nM, Q: 243 nM, P: 130 nM, S: 8 nM)

----------
assayed_system: cGMP-inhibited 3',5'-cyclic phosphodiesterase 3A (Homo sapiens, UniProt Q14432)
Sequence (Q14432 whole entry): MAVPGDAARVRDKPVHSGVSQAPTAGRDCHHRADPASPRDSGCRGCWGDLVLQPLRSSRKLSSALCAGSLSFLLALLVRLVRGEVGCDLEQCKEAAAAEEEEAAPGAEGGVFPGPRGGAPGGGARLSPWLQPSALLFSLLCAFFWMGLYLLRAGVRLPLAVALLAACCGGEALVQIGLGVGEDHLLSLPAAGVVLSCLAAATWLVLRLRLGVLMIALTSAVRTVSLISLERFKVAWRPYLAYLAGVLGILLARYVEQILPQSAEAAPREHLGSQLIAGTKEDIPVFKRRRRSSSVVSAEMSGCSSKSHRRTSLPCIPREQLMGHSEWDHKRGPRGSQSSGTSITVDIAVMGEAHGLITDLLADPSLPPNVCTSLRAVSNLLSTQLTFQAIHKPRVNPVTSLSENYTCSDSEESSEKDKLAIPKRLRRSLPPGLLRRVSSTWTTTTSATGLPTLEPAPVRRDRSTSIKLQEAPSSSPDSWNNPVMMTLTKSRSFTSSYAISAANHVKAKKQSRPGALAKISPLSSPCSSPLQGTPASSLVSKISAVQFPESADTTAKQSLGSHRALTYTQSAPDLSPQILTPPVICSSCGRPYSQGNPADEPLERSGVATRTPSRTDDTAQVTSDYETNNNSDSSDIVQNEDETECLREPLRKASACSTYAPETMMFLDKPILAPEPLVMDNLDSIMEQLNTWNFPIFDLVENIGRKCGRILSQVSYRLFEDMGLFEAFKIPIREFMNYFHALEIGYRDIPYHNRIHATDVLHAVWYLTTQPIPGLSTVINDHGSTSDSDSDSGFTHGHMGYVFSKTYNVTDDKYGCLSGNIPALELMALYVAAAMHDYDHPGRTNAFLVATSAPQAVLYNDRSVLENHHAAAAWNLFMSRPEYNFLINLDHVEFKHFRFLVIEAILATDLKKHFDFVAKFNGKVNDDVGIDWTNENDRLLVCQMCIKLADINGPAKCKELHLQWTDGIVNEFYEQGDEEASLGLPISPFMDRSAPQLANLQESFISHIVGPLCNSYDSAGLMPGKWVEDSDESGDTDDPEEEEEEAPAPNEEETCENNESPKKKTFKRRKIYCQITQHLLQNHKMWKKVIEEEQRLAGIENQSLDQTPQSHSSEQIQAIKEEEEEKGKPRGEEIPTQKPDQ
experiment_description: Inhibition of human recombinant PDE3 by fluorescence capillary-electrophoresis assay
property_label: IC50

Supply IC50 value. Item: COc1cccc(Nc2c(C(N)=O)cnc3c(C)cnn23)c1
> 10 µM

----------
assayed_system: 3',5'-cyclic-AMP phosphodiesterase 4B (Homo sapiens)
Sequence (Q07343 whole entry): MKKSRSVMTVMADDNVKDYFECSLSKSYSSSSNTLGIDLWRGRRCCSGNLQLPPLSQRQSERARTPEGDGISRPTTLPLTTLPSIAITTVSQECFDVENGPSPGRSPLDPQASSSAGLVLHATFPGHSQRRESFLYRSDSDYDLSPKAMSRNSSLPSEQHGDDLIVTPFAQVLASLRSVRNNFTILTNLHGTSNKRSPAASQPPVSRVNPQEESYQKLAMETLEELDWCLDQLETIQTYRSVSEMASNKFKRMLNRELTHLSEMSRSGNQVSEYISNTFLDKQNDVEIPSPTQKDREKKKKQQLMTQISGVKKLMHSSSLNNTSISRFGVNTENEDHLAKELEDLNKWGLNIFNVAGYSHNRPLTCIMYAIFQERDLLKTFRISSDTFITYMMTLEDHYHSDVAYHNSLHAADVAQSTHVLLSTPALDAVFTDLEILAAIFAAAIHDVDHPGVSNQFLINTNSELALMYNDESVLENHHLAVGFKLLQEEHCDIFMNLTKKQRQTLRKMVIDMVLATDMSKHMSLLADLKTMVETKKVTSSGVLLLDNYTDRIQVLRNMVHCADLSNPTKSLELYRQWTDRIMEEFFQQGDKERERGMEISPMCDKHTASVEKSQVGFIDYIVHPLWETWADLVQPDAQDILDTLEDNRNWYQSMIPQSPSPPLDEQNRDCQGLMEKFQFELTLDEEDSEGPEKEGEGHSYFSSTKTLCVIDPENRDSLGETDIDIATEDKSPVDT
experiment_description: Inhibition of human recombinant PDE4B1 expressed in insect Sf9 cells by fluorescence capillary-electrophoresis assay
property_label: IC50 (nM)

[[record]]
smiles_repr = "COc1cccc(Nc2c(C(N)=O)cnc3c(C)cnn23)c1"
unit_abbrev = "nM"
recorded_result = 165


(1) CCc1cnn2c(Nc3cccc(OC)c3)c(C(N)=O)cnc12
(2) Cc1cnn2c(Nc3cc(Cl)cc(Cl)c3)c(C(N)=O)cnc12
Lab note: check whether 1 or 2 shows the higher recorded IC50. Please respond with the label that marks your chosen entry.
1
(1: 38 nM, 2: 16 nM)

(P) Cc1c(S(=O)(=O)c2cccc(C(=O)N(C)C)c2)nn2c(Nc3cc(Cl)cc(Cl)c3)c(C(N)=O)cnc12
(Q) Cc1cnn2c(Nc3ccccc3)c(C(N)=O)cnc12
Between P and Q , which one has the lower reported IC50 value? Please respond with the label that marks your chosen entry.
P
(P: 0.2 nM, Q: 1950 nM)

----------
As shown below, each of these compounds has a reported IC50 value.
assayed_system: Phosphodiesterase 4 (Homo sapiens, UniProt P27815+Q08499+Q07343+Q08493)
experiment_description: Inhibition of PDE4 in human SHSY-5Y cells assessed as suppression of cAMP hydrolysis by HTRF assay in presence of dye d2 labelled cAMP
Type: cell-based
setup_conditions: sh-sy5y

[[record]]
smiles_repr = "Cc1cnn2c(Nc3cc(Cl)cc(Cl)c3)c(C(N)=O)cnc12"
property_label = "IC50"
recorded_result = "> 10 µM"


Supply IC50 value. Item: Cc1cnn2c(Nc3ccccc3)c(C(N)=O)cnc12
> 10 µM

Supply IC50 value. Item: COc1cccc(Nc2c(C(N)=O)cnc3c(C)cnn23)c1
> 10 µM

Supply IC50 value. Item: Cc1c(S(C)(=O)=O)nn2c(Nc3cc(Cl)cc(Cl)c3)c(C(N)=O)cnc12
1.5 µM

Supply IC50 value. Item: CNC(=O)c1cnc2c(C)cnn2c1Nc1cccc(OC)c1
> 10 µM

----------
assayed_system: 3',5'-cyclic-AMP phosphodiesterase 4B (Homo sapiens)
experiment_description: Inhibition of human recombinant PDE4B1 expressed in insect Sf9 cells by fluorescence capillary-electrophoresis assay
pIC50: −log10 of the molar value.
property_label: pIC50

Example entries and their recorded answers appear below.
[[record]]
smiles_repr = "COc1cccc(Nc2c(C(N)=O)cnc3c(C)c(S(=O)(=O)c4cccc(C(=O)N(C)C)c4)nn23)c1"
recorded_result = 9.15

[[record]]
smiles_repr = "CC(C)c1c(S(C)(=O)=O)nn2c(Nc3cc(Cl)cc(Cl)c3)c(C(N)=O)cnc12"
recorded_result = 8.22

[[record]]
smiles_repr = "CSc1nn2c(Nc3cc(Cl)cc(Cl)c3)c3c(nc2c1C)CCNC3=O"
recorded_result = 9.70


(P) Cc1c(S(=O)(=O)c2ccccc2)nn2c(Nc3cc(Cl)cc(Cl)c3)c(C(N)=O)cnc12
(Q) Cc1c(S(C)(=O)=O)nn2c(Nc3cc(Cl)cc(Cl)c3)c3c(nc12)CCNC3=O
(R) COc1cccc(Nc2c(C(N)=O)cnc3c(C)c(S(=O)(=O)c4ccccc4)nn23)c1
(S) COc1cccc(Nc2c(C(N)=O)cnc3c(C)c(S(C)(=O)=O)nn23)c1
Order field: pIC50 | Direction: descending (largest first) Please list the labels according to the requested order.
Q, R, P, S

(P) COc1cccc(Nc2c(C(N)=O)cnc3c(C(C)C)c(S(C)(=O)=O)nn23)c1
(Q) COc1cccc(Nc2c3c(nc4c(C)c(S(C)(=O)=O)nn24)CCNC3=O)c1
Between P and Q , which one has the lower reported pIC50 value? Please respond with the label that marks your chosen entry.
P
